Attribution: paper PMC12136991

target: mouse mu opioid receptor (mMOR-CHO) (Mus musculus); assay: [35S]GTPγS functional assay, mMOR-CHO membranes
Sequence (P42866 whole entry): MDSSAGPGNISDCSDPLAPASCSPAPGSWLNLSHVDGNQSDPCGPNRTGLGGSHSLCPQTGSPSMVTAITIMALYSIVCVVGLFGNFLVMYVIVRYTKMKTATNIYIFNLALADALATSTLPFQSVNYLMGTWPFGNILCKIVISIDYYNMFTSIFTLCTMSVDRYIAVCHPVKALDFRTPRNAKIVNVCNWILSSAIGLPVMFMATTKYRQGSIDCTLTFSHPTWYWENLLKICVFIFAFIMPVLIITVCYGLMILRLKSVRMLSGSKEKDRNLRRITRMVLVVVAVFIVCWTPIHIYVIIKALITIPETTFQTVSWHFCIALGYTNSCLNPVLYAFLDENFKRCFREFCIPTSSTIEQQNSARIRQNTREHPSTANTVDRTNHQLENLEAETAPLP
quantity-name: pEC50
Lab note: report pEC50 as minus log10 of the concentration in molar units, number only.

Q: Find the measured pEC50 of C=C[C@H]1[C@H]2CCC[C@]1(c1cccc(C(N)=O)c1)CCN2CCc1ccccc1 [compound 5] and report it.
Result: 7.63

---

biological target: human δ-opioid receptor (OPRD1) (Homo sapiens, UniProt P41143); assay: Forskolin-induced cAMP accumulation assay, DOR agonist mode; settings: read-out: DOR Agonist %Emax ± SEM
Sequence (P41143 whole entry): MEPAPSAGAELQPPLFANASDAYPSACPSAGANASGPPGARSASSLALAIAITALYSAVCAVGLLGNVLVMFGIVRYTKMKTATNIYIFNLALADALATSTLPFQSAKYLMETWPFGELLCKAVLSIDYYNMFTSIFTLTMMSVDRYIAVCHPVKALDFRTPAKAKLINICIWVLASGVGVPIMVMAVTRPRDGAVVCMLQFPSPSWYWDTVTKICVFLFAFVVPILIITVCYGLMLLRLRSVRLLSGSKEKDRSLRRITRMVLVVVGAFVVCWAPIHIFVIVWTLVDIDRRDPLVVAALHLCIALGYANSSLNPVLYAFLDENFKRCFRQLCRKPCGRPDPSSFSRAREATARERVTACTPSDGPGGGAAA
quantity-name: Emax (%)
The reply should contain only the number, in %.

Q: Find the measured Emax of C=C[C@H]1C2CCCC1(c1cccc(O)c1)CCN2CCc1ccccc1[N+](=O)[O-] (stereo in doubt) and report it.
Result: 35.9

Q: Find the measured Emax of C=C[C@H]1[C@H]2CCC[C@]1(c1cccc(C(N)=O)c1)CCN2CCc1ccccc1 and report it.
Result: 25.2

Q: Find the measured Emax of C=C[C@H]1[C@H]2CCC[C@]1(c1cccc(NC(C)=O)c1)CCN2CCc1ccccc1 and report it.
Result: 56.6

Q: Find the measured Emax of C=C[C@H]1C2CCCC1(c1cccc(O)c1)CCN2CCc1cccc(O)c1 (stereo in doubt) and report it.
Result: 0

Q: Find the measured Emax of C=C[C@H]1[C@H]2CCC[C@]1(c1cccc(O)c1)CCN2CCc1cccs1 and report it.
Result: 20
